molecular target: human B1 (Homo sapiens, UniProt P46663); test: Calcium flux assay for Bradykinin B1 antagonist, CHO-K1 cell line expressing human B1; conditions: CHO-K1 cells expressing human B1, agonist Lys-(Des-Arg)-Bradykinin, read-out: Potency (IC50 value against human B1)
Sequence (P46663 whole entry): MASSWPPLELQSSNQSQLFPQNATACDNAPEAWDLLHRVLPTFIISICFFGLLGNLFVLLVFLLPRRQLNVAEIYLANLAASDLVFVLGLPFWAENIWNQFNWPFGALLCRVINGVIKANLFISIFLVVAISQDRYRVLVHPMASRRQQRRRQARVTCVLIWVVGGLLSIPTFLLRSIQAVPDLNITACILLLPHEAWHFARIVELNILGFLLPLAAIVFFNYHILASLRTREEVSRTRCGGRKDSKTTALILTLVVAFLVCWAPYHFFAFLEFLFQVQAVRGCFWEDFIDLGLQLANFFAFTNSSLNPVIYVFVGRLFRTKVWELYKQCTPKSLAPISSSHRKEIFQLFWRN
pIC50: −log10 of the molar value. Structures can show the parent of a compound that is named as a salt.
measured.attribute: pIC50

So what's the measured pIC50 for this one? COc1cc(C)c(S(=O)(=O)N(C)Cc2cc(C(=O)N(C)Cc3cc(F)cc(CN4CCCC4)c3)co2)c(C)c1 [Ex 158, trifluoroacetate]
7.00 to 8.00

Here is the next molecule: COc1cc(C)c(S(=O)(=O)N(C)Cc2nnc(C(=O)N3CCN(CC4CCCN(C)C4)CC3)o2)c(C)c1 (stereo not shown)
6.00 to 7.00

###

target: human B1 (Homo sapiens); assay: Calcium flux assay for Bradykinin B1 antagonist, CHO-K1 cell line expressing human B1; conditions: CHO-K1 cells expressing human B1, agonist Lys-(Des-Arg)-Bradykinin, read-out: Potency (IC50 value against human B1)
Counter-ions that a name gives are not always drawn.
measured.attribute: IC50

INSERT INTO results (compound, result_value) VALUES
  ('COc1cc(C)c(S(=O)(=O)N(Cc2cc(C(=O)N3CCC(N4CCN(C)CC4)CC3)co2)C2CC2)c(C)c1 [Ex 119, trifluoroacetate]', '0.1 to 1 µM'),
  ('COc1cc(C)c(S(=O)(=O)N(C)Cc2cc(C(=O)N(C)Cc3nnc(CN4CCCC4)s3)co2)c(C)c1 [Ex 137]', '0.1 to 1 µM'),
  ('COc1cc(C)c(S(=O)(=O)N(Cc2cc(C(=O)NCc3ccc(CN4CCCC4)c(F)c3)co2)C2CC2)c(C)c1 [Ex 154, trifluoroacetate]', '0.1 to 1 µM');

So what IC50 did COc1cc(C)c(S(=O)(=O)N(C)Cc2cc(C(=O)N3CCCC(c4ccc(CN5CCCC5)cc4)C3)co2)c(C)c1 (stereo not shown) [Ex 95] get with human B1 (Homo sapiens)?
0.1 to 1 µM

Also COc1cc(C)c(S(=O)(=O)N(C)Cc2cc(C(=O)NCc3ccc(C4=NCCN4)cc3)co2)c(C)c1 [Ex 6] ?
0.01 to 0.1 µM

Also need COc1cc(C)c(S(=O)(=O)N(Cc2cc(C(=O)N(C)Cc3cccc(CN4CCCC4)c3)co2)C2CC2)c(C)c1 [Ex 55] , thanks.
0.01 to 0.1 µM

Next up: COc1cc(C)c(S(=O)(=O)N(C)Cc2nnc(C(=O)N3CCN(Cc4ccc(N5CCCC5)nc4)CC3)o2)c(C)c1 [Ex 261, trifluoroacetate]
< 0.01 µM

###

molecular target: human B1 (Homo sapiens); test: Calcium flux assay for Bradykinin B1 antagonist, CHO-K1 cell line expressing human B1; conditions: CHO-K1 cells expressing human B1, agonist Lys-(Des-Arg)-Bradykinin, read-out: Potency (IC50 value against human B1)
pIC50: −log10 of the molar value. Counter-ions that a name gives are not always drawn.
Parameter pIC50: see the listing below.

INSERT INTO measurements (molecule, measured_attribute, result_value) VALUES
  ('COc1cc(C)c(S(=O)(=O)N(Cc2nnc(C(=O)N(C)Cc3ccc(CN4CCCC4)cc3)o2)C2CC2)c(C)c1 [Ex 281]', 'pIC50', '> 8.00'),
  ('COc1cc(C)c(S(=O)(=O)N(Cc2nc(C(=O)N3CCN(CCN4CCCC4)CC3)co2)C2CC2)c(C)c1 [Ex 195, trifluoroacetate]', 'pIC50', '> 8.00'),
  ('COc1cc(C)c(S(=O)(=O)N(C)Cc2noc(C(=O)N3CCN(CC4CCCN(C)C4)CC3)n2)c(C)c1 (stereo not shown) [Ex 303]', 'pIC50', '6.00 to 7.00');

pIC50 lookup needed for COc1cc(C)c(S(=O)(=O)N(C)Cc2nnc(C(=O)N3CCN(CCCN4CCCC4)CC3)s2)c(C)c1 [Ex 327] , thanks.
6.00 to 7.00
